Taken from patent US20250129070A1.

- Test system: VCaP cells
- Method notes: VCaP growth inhibition assay
- Type: cell-based
- Stated conditions: 30 pM R1881, 9 days, CTG
Observation type: IC50

* CN1C(=O)CCc2cc(-c3cccc4cc(-c5ccc(CCC6CCN(c7ncc(C(=O)NC8C(C)(C)C(Oc9ccc(C#N)c(Cl)c9)C8(C)C)cn7)CC6)nc5)ncc34)ccc21 (stereo not drawn) [Compound 238] | > 100 nM
* CC(=O)N1CCc2c(c(-c3cccc4cc(-c5cnn(CCC6CC7(C6)CN(c6ncc(C(=O)NC8C(C)(C)C(Oc9ccc(C#N)c(Cl)c9)C8(C)C)cn6)C7)c5)ncc34)nn2C2CCOCC2)C1 (stereo not drawn) [Compound 225] | 0.1 to 1 nM
* CC(=O)N1CCc2c(c(N3CCCc4cc(-c5cnn(C)c5)c(C(F)(F)F)cc43)nn2C2CCN(CC3CCN(c4ncc(C(=O)NC5C(C)(C)C(Oc6ccc(C#N)c(Cl)c6)C5(C)C)cn4)CC3)CC2)C1 (stereo not drawn) [Compound 27] | 0.1 to 1 nM
* CC(=O)N1CCc2c(c(-c3cccc4cc(-c5ccc(C(=O)NCCC6CCN(c7ncc(C(=O)NC8C(C)(C)C(Oc9ccc(C#N)c(Cl)c9)C8(C)C)cn7)CC6)nc5)ncc34)nn2C2CCOCC2)C1 (stereo not drawn) [Compound 179] | 0.1 to 1 nM
* CC(=O)N1CCc2c(c(Nc3ccc(-c4cnn(C)c4)cc3F)nn2C2CCN(C(=O)CN3CCN(c4ncc(C(=O)NC5C(C)(C)C(Oc6ccc(C#N)c(Cl)c6)C5(C)C)cn4)CC3)CC2)C1 (stereo not drawn) [Compound 66] | 0.1 to 1 nM
* Cn1cc(-c2cc3cccc(-c4cc(C5=CCN(CC6CCN(c7ncc(C(=O)NC8C(C)(C)C(Oc9ccc(C#N)c(Cl)c9)C8(C)C)cn7)CC6)CC5)c5c(c4)n(C)c(=O)n5C)c3cn2)cn1 (stereo not drawn) [Compound 243] | 0.1 to 1 nM
* CC(=O)N1CCc2c(c(N3CCCc4cc(-c5cnn(C)c5)c(C(F)F)cc43)nn2C2CCN(CC3CCN(c4ccc5c(n4)CN(C4C(C)(C)C(Oc6ccc(C#N)c(Cl)c6)C4(C)C)C5=O)CC3)CC2)C1 (stereo not drawn) [Compound 296] | 0.1 to 1 nM
* CC(=O)N1CCc2c(c(N3CCCc4cc(-c5cnn(C)c5)c(C(F)F)cc43)nn2C2CCN([C@H]3CCCN(c4ncc(C(=O)NC5C(C)(C)C(Oc6ccc(C#N)c(Cl)c6)C5(C)C)cn4)C3)CC2)C1 (stereo partly drawn) [Compound 397] | > 100 nM
* COc1cc(OC2C(C)(C)C(NC(=O)c3ccc(N4CCN(C5CN(c6ccc(-c7cc8c(cn7)N(c7nn(C9CCOCC9)c9c7CN(C(C)=O)CC9)CCC8)cn6)C5)CC4)cc3)C2(C)C)ccc1C#N (stereo not drawn) [Compound 324] | ≤ 0.1 nM
* COc1cc(OC2C(C)(C)C(NC(=O)c3ccc(N4CCN(CC5CCC(n6nc(N7CCCc8cc(-c9cnn(C)c9)c(C(F)F)cc87)c7c6CCN(C(C)=O)C7)CC5)CC4)cc3)C2(C)C)ccc1C#N (stereo not drawn) [Compound 319] | ≤ 0.1 nM
* COc1cc(OC2C(C)(C)C(NC(=O)c3ccc(N4CCC(CN5CCC(n6nc(N7CCCc8cc(-c9cnn(C)c9)c(C(F)F)cc87)c7c6CCN(C(C)=O)C7)CC5)(OC)CC4)cc3)C2(C)C)ccc1C#N (stereo not drawn) [Compound 264] | 0.1 to 1 nM
* CC(=O)N1CCc2c(c(N3CCCc4cc(-c5cnn(C)c5)c(C(F)F)cc43)nn2C2CCN(CC3CCN(c4ncc(C(=O)NC5C(C)(C)C(Oc6ccc(C#N)c(Cl)c6)C5(C)C)cn4)CC3)C2)C1 (stereo not drawn) [Compound 21] | 0.1 to 1 nM
* COc1cc(OC2C(C)(C)C(NC(=O)c3ccc(N4CCC(CN5CCC(n6nc(N7CCCc8cc(C#N)c(C(F)F)cc87)c7c6CCN(C(C)=O)C7)CC5)C(C)(C)C4)cc3)C2(C)C)ccc1C#N (stereo not drawn) [Compound 451] | 0.1 to 1 nM
* C[C@@H]1CC(=O)Nc2cccc(-c3ccc4c(c3)c(-c3cnn(C)c3)nn4CCN(C)c3ncc(C(=O)NC4C(C)(C)C(Oc5ccc(C#N)c(Cl)c5)C4(C)C)cn3)c2N1 (stereo partly drawn) [Compound 48] | 1 to 100 nM
* CC(=O)N1CCc2c(c(N3CCCc4cc(-c5cnn(C)c5)c(C)cc43)nn2C2CCN(C3CCC4(CC3)CN(c3ncc(C(=O)NC5C(C)(C)C(Oc6ccc(C#N)c(Cl)c6)C5(C)C)cn3)C4)CC2)C1 (stereo not drawn) [Compound 468] | 0.1 to 1 nM
* CC(=O)N1CCc2c(c(N3CCCc4cc(C#N)ccc43)nn2C2CC3(C2)CN(CC2CC4(C2)CN(c2ncc(C(=O)NC5C(C)(C)C(Oc6ccc(C#N)c(Cl)c6)C5(C)C)cn2)C4)C3)C1 (stereo not drawn) [Compound 221] | 1 to 100 nM
* CC(=O)N1CCc2c(c(N3CCCc4cc(-c5cnn(C)c5)c(C(F)F)cc43)nn2C2CCN(C[C@@H]3CCN(c4ncc(C(=O)NC5C(C)(C)C(Oc6ccc(C#N)c(Cl)c6)C5(C)C)cn4)C[C@@H]3C)CC2)C1 (stereo partly drawn) [Compound 275] | ≤ 0.1 nM
* CNC(=O)N1CCc2c(c(N3CCCc4cc(-c5cnn(C)c5)c(C(F)F)cc43)nn2C2CCN(C(=O)CCN3CCN(c4ncc(C(=O)NC5C(C)(C)C(Oc6ccc(C#N)c(Cl)c6)C5(C)C)cn4)CC3)CC2)C1 (stereo not drawn) [Compound 108] | ≤ 0.1 nM
